# TGI per entry
- Tested on: RXF 393 renal
- measurementProtocol: NCI tumour cell line growth inhibition, 48 h

NC(Cc1c[nH]c2cccc(F)c12)C(=O)O (stereo not given): > 4500 µM

With those in mind, consider the next molecule.
## Task Recorded TGI for CC(=O)/C=C/c1ccc(N(CCO)Cc2ccc(C(C)(C)C)cc2)cc1 , please?
## Result 208 µM

* * *

- Test system: SF-268 CNS
- measurementProtocol: NCI tumour cell line growth inhibition, 48 h
Each entry gets False if its TGI stays under 50 µM, and True if its TGI is 50 µM or above.

## Task Tell me whether TGI is at least 50 µM here: COC(=O)[C@@H]1[C@H]2CC[C@]3(C)[C@@H](OC(C)=O)CC[C@H]3[C@@H]2CC[C@H]1C(C)=O
## Result True

## Task Tell me whether TGI is at least 50 µM here: C=C1C(O)C2CC(C)(C)C(=O)C2=C(CC(C)C)C12CC2 (centres undefined)
## Result True

* * *

- Tested on: HOP-62 NSCLC
- measurementProtocol: NCI tumour cell line growth inhibition, 48 h
# TGI per entry

Answered examples (4):
COc1ccc(NC(/C(C(=O)C(=O)/C=C(\O)c2ccccc2)=C(\O)c2ccccc2)c2ccc(OC)cc2)cc1 (stereo unspecified): > 100 µM
COC1OC(Cn2cc([N+](=O)[O-])nc2C)C(O)C(O)C1O (stereo unspecified): > 100 µM
COc1ccc(C2=NN(C(=O)c3ccc(Cl)cc3)C(O)(c3cc(F)c(Cl)cc3Cl)C2)cc1 (stereo unspecified): > 100 µM
CC(=O)N1N=C(c2ccc3ccccc3c2O)CC1c1ccc(N(C)C)cc1 (stereo unspecified): > 100 µM

## Task Recorded TGI for N#CCC(=O)Nc1ccccc1O , please?
## Result > 100 µM

## Task Recorded TGI for C=C1C(=O)O[C@H]2[C@H]1CC/C(COC(=O)N[C@H](Cc1c[nH]c3ccccc13)C(=O)OC)=C\CC[C@@]1(C)O[C@@H]21 , please?
## Result 28.5 µM

* * *

- Tested on: NCI-H23 lung
- measurementProtocol: NCI tumour cell line growth inhibition, 48 h
experimentalReadout: GI50

COc1ccc(-c2nnc(Nc3nc(O)c(C4=c5cc(Br)ccc5=NC4=O)s3)o2)cc1: 23.6 µM
CCCCC[C@H]1C/C=C2/C(=O)C(Cl)=C[C@@H]2C/C=C\CCCC(=O)O1: 0.493 µM
CCN(CC)CCCNc1cc(OC)c(OC)c2cccnc12: 1.85 µM
CCS(=O)(=O)N1CCN(c2ccc(Nc3ncc(C(N)=O)c(NC4CC4)n3)cc2)CC1: 5.46 µM
O=c1[nH]c2ccccc2n1C1CCN(CCOc2ccccc2)CC1: 30.5 µM
C=CCN1C(=O)[C@]2(SC1=S)[C@H](c1cccc(Cl)c1)CN(C)[C@]21C(=O)NC2C=CC(Cl)=C[C@H]21 (stereo partly drawn): 6.12 µM
CC1(C)CC[C@]2(CO)CC[C@]3(C)C(=CC[C@@H]4[C@@]5(C)CCNCC(C)(C)[C@@H]5CC[C@]43C)[C@@H]2C1: 12.5 µM
CC(C)(C)OC(=O)N1Cc2cc3ccccc3nc2C1CO (stereo not drawn): > 100 µM
COC(=O)[C@H](CCCCNC(=O)OCc1ccccc1)NC(=O)[C@@H](NC(=O)Nc1cc(C(F)(F)F)cc(C(F)(F)F)c1)C(C)C: > 10 µM
C=C1C(O)C2CC(C)(C)C(=O)C2=C(CC(C)C)C12CC2 (stereo not drawn): > 100 µM

## Task Recorded GI50 for Cc1nn(-c2ccccc2)c2nc(C)n(-c3ccc(Br)cc3)c(=O)c12 , please?
## Result 0.823 µM

## Task Recorded GI50 for CCOC(=O)CCSC1=CC(=O)c2nc3ccccc3c3ccnc1c23 , please?
## Result 16.3 µM

## Task Recorded GI50 for COc1cc(NCCC2CCCCN2)c2ncccc2c1OC (stereo not drawn) , please?
## Result 7.09 µM
